IC50, Cathepsin D (Homo sapiens, UniProt P07339): measured values
Report as a plain number; the unit µM is understood.

>>> numeric_readout("CC(=O)N[C@@H](Cc1cc(F)cc(F)c1)[C@H](O)CNC1(c2cccc(C(C)(C)C)c2)CCNC(=O)C1 (single isomer, unassigned)")
0.33

Provide Cathepsin D (Homo sapiens, UniProt P07339) IC50 reading for CC(=O)N[C@@H](Cc1cc(F)cc(F)c1)[C@H](O)CN[C@@]1(c2cccc(C(C)(C)C)c2)CC[C@H](Nc2cccnc2)NC1 . 9.8

###

Endpoint: IC50. System: Beta-secretase 1 (Homo sapiens, UniProt P56817). Items follow.
Sequence (P56817 whole entry): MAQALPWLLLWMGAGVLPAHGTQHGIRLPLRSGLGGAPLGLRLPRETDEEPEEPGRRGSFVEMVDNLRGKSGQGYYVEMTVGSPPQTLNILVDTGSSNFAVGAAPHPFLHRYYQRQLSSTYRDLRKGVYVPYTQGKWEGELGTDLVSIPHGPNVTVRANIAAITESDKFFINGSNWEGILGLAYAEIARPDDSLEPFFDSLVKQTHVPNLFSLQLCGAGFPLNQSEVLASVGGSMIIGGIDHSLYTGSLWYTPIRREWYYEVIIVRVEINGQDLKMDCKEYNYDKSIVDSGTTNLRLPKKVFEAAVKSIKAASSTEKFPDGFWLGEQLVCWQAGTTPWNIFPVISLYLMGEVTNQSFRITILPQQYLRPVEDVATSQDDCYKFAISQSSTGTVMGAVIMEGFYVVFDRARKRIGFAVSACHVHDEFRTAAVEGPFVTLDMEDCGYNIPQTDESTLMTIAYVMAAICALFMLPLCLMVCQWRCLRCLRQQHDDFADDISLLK
Your answer is read as µM, so omit the unit and give the number.

>>> numeric_readout("CC(=O)N[C@@H](Cc1cc(F)cc(F)c1)[C@H](O)CNC1(c2cccc(C(C)(C)C)c2)CCCN(C(=O)OCc2ccccc2)C1 (mixture of isomers)")
0.86
>>> numeric_readout("CS[C@H]1CC[C@@](NC[C@@H](O)[C@H](Cc2cc(F)cc(F)c2)NC(C)=O)(c2cccc(C(C)(C)C)c2)CN1")
0.024
>>> numeric_readout("CC(=O)N[C@@H](Cc1cc(F)cc(F)c1)[C@H](O)CN[C@]1(c2cccc(C(C)(C)C)c2)CC[C@@H](O)CC1")
0.024
>>> numeric_readout("CC(=O)N[C@@H](Cc1cc(F)cc(F)c1)[C@H](O)CN[C@@]1(c2cccc(C(C)(C)C)c2)CC[C@H](C(F)(F)F)NC1")
0.033
>>> numeric_readout("CC(=O)N[C@@H](Cc1cc(F)cc(F)c1)[C@H](O)CN[C@@]1(c2cccc(C(C)(C)C)c2)CCC(NO)=NC1")
0.0088

Answer with IC50 of CC(=O)N[C@@H](Cc1cc(F)cc(F)c1)[C@H](O)CNC1(c2cccc(C(C)(C)C)c2)CCNCC1 measured for Beta-secretase 1 (Homo sapiens, UniProt P56817). 4.7

Using Beta-secretase 1 (Homo sapiens, UniProt P56817) as the test system, report measured IC50 of CC(=O)N[C@@H](Cc1cc(F)cc(F)c1)[C@H](O)CN[C@@]1(c2cccc(C(C)(C)C)c2)CC[C@H](NC=O)NC1 . 0.21

###

# TARGET_UNDER_TEST: Beta-secretase 1 (Homo sapiens, UniProt P56817)
Overview of reported log10 of IC50 across a group of compounds:
Heads up, the numbers here are log10 of IC50 in nM units.

Param request: log10 of IC50 | system Beta-secretase 1 (Homo sapiens, UniProt P56817) | item CON[C@H]1CC[C@@](NC[C@@H](O)[C@H](Cc2cc(F)cc(F)c2)NC(C)=O)(c2cccc(C(C)(C)C)c2)CN1 2.00

Give measured log10 of IC50 for CC(=O)N[C@@H](Cc1cc(F)cc(F)c1)[C@H](O)CN[C@]1(c2cccc(C(C)(C)C)c2)CC[C@H](O)CC1 (Beta-secretase 1 (Homo sapiens, UniProt P56817)). 3.96

Fill in log10 of IC50 for CC(=O)N[C@@H](Cc1cc(F)cc(F)c1)[C@H](O)CNC1(c2cccc(-n3cccn3)c2)CCCOC1 (mixture of isomers) tested with Beta-secretase 1 (Homo sapiens, UniProt P56817). 2.43

GET log10 of IC50 | system: Beta-secretase 1 (Homo sapiens, UniProt P56817) | item: CC(=O)N[C@@H](Cc1cc(F)cc(F)c1)[C@H](O)CNC1(c2cccc(C(C)(C)C)c2)CCC(=O)CC1 2.08

Provide measured log10 of IC50 on Beta-secretase 1 (Homo sapiens, UniProt P56817) for CC(=O)N[C@@H](Cc1cc(F)cc(F)c1)[C@H](O)CN[C@@]1(c2cccc(C(C)(C)C)c2)CC[C@H](Nc2cccnc2)NC1 please. 2.70

// fetch log10 of IC50 for CC(=O)N[C@@H](Cc1cc(F)cc(F)c1)[C@H](O)CNC1(c2cccc(C(C)(C)C)c2)CCc2nc(C)ncc2C1 (mixture of isomers) ; system: Beta-secretase 1 (Homo sapiens, UniProt P56817) 1.97

Enter measured log10 of IC50, system Beta-secretase 1 (Homo sapiens, UniProt P56817), for the compound shown: CC(=O)N[C@@H](Cc1cc(F)cc(F)c1)[C@H](O)CNC1(c2cccc(C(C)(C)C)c2)CCOCC1 (mixture of isomers) 1.79

Give log10 of IC50 for this entry on Beta-secretase 1 (Homo sapiens, UniProt P56817): CC(=O)N[C@@H](Cc1cc(F)cc(F)c1)[C@H](O)CNC1(c2cccc(C(C)(C)C)c2)CCc2nc(N)ncc2C1 (mixture of isomers) 1.15

Give log10 of IC50; test system Beta-secretase 1 (Homo sapiens, UniProt P56817); compound CC(=O)N[C@@H](Cc1cc(F)cc(F)c1)[C@H](O)CN[C@@]1(c2cccc(C(C)(C)C)c2)CC[C@H](NO)NC1 1.28

Quote log10 of IC50 with test system Beta-secretase 1 (Homo sapiens, UniProt P56817) for CC(=O)N[C@@H](Cc1cc(F)cc(F)c1)[C@H](O)CNC1(c2cccc(C(C)(C)C)c2)CCCN(C(N)=O)C1 (mixture of isomers) 2.52

Specify the recorded log10 of IC50 for COC(=O)N[C@H]1CC[C@@](NC[C@@H](O)[C@H](Cc2cc(F)cc(F)c2)NC(C)=O)(c2cccc(C(C)(C)C)c2)CN1 , system: Beta-secretase 1 (Homo sapiens, UniProt P56817). 2.38

Name the recorded log10 of IC50 of CC(=O)N[C@@H](Cc1cc(F)cc(F)c1)[C@H](O)CN[C@@]1(c2cccc(C(C)(C)C)c2)CC[C@H](NS(C)(=O)=O)NC1 , assay system Beta-secretase 1 (Homo sapiens, UniProt P56817). 2.60

Name the recorded log10 of IC50 of CC(=O)N[C@@H](Cc1cc(F)cc(F)c1)[C@H](O)CN[C@@]1(c2cccc(C(C)(C)C)c2)CC[C@H](S(C)(=O)=O)NC1 , assay system Beta-secretase 1 (Homo sapiens, UniProt P56817). 2.32

Enter recorded log10 of IC50 with Beta-secretase 1 (Homo sapiens, UniProt P56817) for CC(=O)N[C@@H](Cc1cc(F)cc(F)c1)[C@H](O)CNC1(c2cccc(C(C)(C)C)c2)CCCN(O)C1 (mixture of isomers) here. 2.60

The reported numbers originate from ChEMBL document CHEMBL1156090.
